- TARGET SYSTEM: 3',5'-cyclic-AMP phosphodiesterase 4D (Homo sapiens, UniProt Q08499)
- Sequence (Q08499 whole entry): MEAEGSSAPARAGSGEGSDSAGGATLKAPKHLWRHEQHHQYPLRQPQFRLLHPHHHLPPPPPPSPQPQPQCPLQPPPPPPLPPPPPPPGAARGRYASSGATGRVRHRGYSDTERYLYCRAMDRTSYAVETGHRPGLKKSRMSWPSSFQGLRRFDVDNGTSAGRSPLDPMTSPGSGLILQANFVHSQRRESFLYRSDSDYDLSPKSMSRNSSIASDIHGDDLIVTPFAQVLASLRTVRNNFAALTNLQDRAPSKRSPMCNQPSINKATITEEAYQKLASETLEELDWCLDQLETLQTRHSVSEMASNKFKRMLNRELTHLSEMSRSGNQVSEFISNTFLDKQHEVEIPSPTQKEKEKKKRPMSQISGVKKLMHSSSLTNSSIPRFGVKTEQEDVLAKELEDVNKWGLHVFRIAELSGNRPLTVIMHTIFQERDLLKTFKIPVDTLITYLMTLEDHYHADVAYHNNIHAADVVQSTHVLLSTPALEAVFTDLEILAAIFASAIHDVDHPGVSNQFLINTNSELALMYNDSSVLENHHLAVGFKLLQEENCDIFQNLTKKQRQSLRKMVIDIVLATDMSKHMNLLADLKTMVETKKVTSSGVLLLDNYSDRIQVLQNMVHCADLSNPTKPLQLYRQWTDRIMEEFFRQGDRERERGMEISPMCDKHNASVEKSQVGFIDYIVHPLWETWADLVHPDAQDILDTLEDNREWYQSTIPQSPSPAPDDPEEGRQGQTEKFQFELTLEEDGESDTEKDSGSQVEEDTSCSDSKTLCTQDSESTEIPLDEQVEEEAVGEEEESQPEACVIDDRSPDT
- PROCEDURE DETAILS: Inhibition of [3H]cAMP binding to recombinant human Phosphodiesterase 4D5 (PDE4D5) in baculovirus expression system
pKi: −log10 of the molar value.
Entries annotated with measured pKi

MOLECULE	VALUE COMPARATOR	pKi
COc1ccc(Cn2cnc(N)c3nc(C(C)(C)COc4ccc(C(=O)O)cc4)nc2-3)cc1OC1CCCC1	<	4.30
COc1cccc(OC[C@H](C)c2nc3c(N)ncn(Cc4ccc(OC)c(OC5CCCC5)c4)c-3n2)c1	=	6.49
CCNc1ncn(Cc2ccc(OC)c(OC3CCCC3)c2)c2nc(C(C)C)nc1-2	=	6.85
CC1CC(=O)NN=C1c1ccc(-n2ccnc2)cc1 (stereo unspecified)	<	4.30
COc1ccc(Cn2cnc(N)c3nc(C(C)(C)COc4ccc(C(N)=O)cc4)nc2-3)cc1OC1CCCC1	=	8.31
COC(=O)c1ccc(OCC(C)(C)c2nc3c(N)ncn(Cc4ccc(OC)c(OC5CCCC5)c4)c-3n2)cc1	=	8.26

###

- TARGET SYSTEM: Phosphodiesterase 4 (Homo sapiens, UniProt P27815+Q08499+Q07343+Q08493)
- PROCEDURE DETAILS: Inhibition of [3H]cAMP binding to human lung Phosphodiesterase 4
- Assay type: protein assay
Output yes for records whose Ki is lower than 20 nM, no for records at or above 20 nM.

SMILES TEXT	TARGET SYSTEM	CLASSIFICATION
COC(=O)c1ccc(OCC(C)(C)c2nc3c(N)ncn(Cc4ccc(OC)c(OC5CCCC5)c4)c-3n2)cc1	Phosphodiesterase 4 (Homo sapiens, UniProt P27815+Q08499+Q07343+Q08493)	yes
COc1cccc(OC[C@H](C)c2nc3c(N)ncn(Cc4ccc(OC)c(OC5CCCC5)c4)c-3n2)c1	Phosphodiesterase 4 (Homo sapiens, UniProt P27815+Q08499+Q07343+Q08493)	no
COc1ccc(Cn2cnc(N)c3nc(C(C)(C)COc4ccc(C(=O)O)cc4)nc2-3)cc1OC1CCCC1	Phosphodiesterase 4 (Homo sapiens, UniProt P27815+Q08499+Q07343+Q08493)	no
CCNc1ncn(Cc2ccc(OC)c(OC3CCCC3)c2)c2nc(C(C)C)nc1-2	Phosphodiesterase 4 (Homo sapiens, UniProt P27815+Q08499+Q07343+Q08493)	no
COc1ccc(Cn2cnc(N)c3nc(C(C)(C)COc4ccc(C(N)=O)cc4)nc2-3)cc1OC1CCCC1	Phosphodiesterase 4 (Homo sapiens, UniProt P27815+Q08499+Q07343+Q08493)	no

###

- TARGET SYSTEM: 3',5'-cyclic-AMP phosphodiesterase 4D (Homo sapiens)
- PROCEDURE DETAILS: Inhibition of [3H]cAMP binding to recombinant human Phosphodiesterase 4DE (PDE4DE) in baculovirus expression system
pKi: −log10 of the molar value.

COMPOUND	VALUE COMPARATOR	pKi
CC1CC(=O)NN=C1c1ccc(-n2ccnc2)cc1 (stereo unspecified) [CI-930]	<	4.30
COc1ccc(Cn2cnc(N)c3nc(C(C)(C)COc4ccc(C(=O)O)cc4)nc2-3)cc1OC1CCCC1	<	4.30
COc1ccc(Cn2cnc(N)c3nc(C(C)(C)COc4ccc(C(N)=O)cc4)nc2-3)cc1OC1CCCC1	=	6.51
COc1cccc(OC[C@H](C)c2nc3c(N)ncn(Cc4ccc(OC)c(OC5CCCC5)c4)c-3n2)c1	=	5.30
CCNc1ncn(Cc2ccc(OC)c(OC3CCCC3)c2)c2nc(C(C)C)nc1-2	=	5.54
COC(=O)c1ccc(OCC(C)(C)c2nc3c(N)ncn(Cc4ccc(OC)c(OC5CCCC5)c4)c-3n2)cc1	=	6.61

Data credit: ChEMBL document CHEMBL1142672
